Data credit: patent US9586928B2

Each entry below carries its reported RORγ repression, fold change over DMSO.
Target: RORγ (Homo sapiens, UniProt P51449)
Construct: expressed in transfected cells; host or cells: HEK293T
Sequence (P51449 269-508 limits assumed): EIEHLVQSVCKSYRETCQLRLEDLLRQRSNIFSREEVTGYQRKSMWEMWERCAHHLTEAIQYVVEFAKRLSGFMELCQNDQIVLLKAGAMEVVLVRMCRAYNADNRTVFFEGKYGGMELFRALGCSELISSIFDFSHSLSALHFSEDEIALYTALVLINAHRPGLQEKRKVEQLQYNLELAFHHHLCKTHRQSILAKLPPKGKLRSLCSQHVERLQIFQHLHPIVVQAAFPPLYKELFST
Experiment: Gal4-RORγ LBD / UAS luciferase cotransfection assay
Format: cell-based
Settings: 10 μM

Illustrative cases are given below, each with its answer.
>  <structure>
COc1cc(-c2ccc(C(O)(C(F)(F)F)C(F)(F)F)cc2)ccc1CN1CCN(Cc2ccncc2)CC1

>  <target-entity>
RORγ (Homo sapiens, UniProt P51449)

>  <parameter>
RORγ repression, fold change over DMSO

>  <assay-value>
0.05 fold change over DMSO

$$$$
>  <structure>
CCCNC(=O)N1CCN(Cc2ccc(-c3ccc(C(O)(C(F)(F)F)C(F)(F)F)cc3)cc2)CC1

>  <target-entity>
RORγ (Homo sapiens, UniProt P51449)

>  <parameter>
RORγ repression, fold change over DMSO

>  <assay-value>
0.4 fold change over DMSO

$$$$
>  <structure>
OC(c1ccc(-c2ccc(CN3CCN(Cc4ccncc4)CC3)c(Cl)c2)cc1)(C(F)(F)F)C(F)(F)F

>  <target-entity>
RORγ (Homo sapiens, UniProt P51449)

>  <parameter>
RORγ repression, fold change over DMSO

>  <assay-value>
0.05 fold change over DMSO

$$$$
>  <structure>
OC(c1ccc(-c2ccc(CN3CCN(Cc4ccncc4Br)CC3)cc2)cc1)(C(F)(F)F)C(F)(F)F

>  <target-entity>
RORγ (Homo sapiens, UniProt P51449)

>  <parameter>
RORγ repression, fold change over DMSO

>  <assay-value>
0.05 fold change over DMSO

$$$$
>  <structure>
O=C(Nc1ccccc1)N1CCN(Cc2ccc(-c3ccc(C(O)(C(F)(F)F)C(F)(F)F)cc3)cc2)CC1

>  <target-entity>
RORγ (Homo sapiens, UniProt P51449)

>  <parameter>
RORγ repression, fold change over DMSO

>  <assay-value>
0.5 fold change over DMSO

$$$$
>  <structure>
O=C(Cc1ccccc1)N1CCN(Cc2ccc(-c3ccc(C(O)(C(F)(F)F)C(F)(F)F)cc3)cc2)CC1

>  <target-entity>
RORγ (Homo sapiens, UniProt P51449)

>  <parameter>
RORγ repression, fold change over DMSO

>  <assay-value>
0.25 fold change over DMSO

$$$$

Next up:
**Q:** Give the measured RORγ repression, fold change over DMSO of O=S(=O)(c1ccc(CBr)cc1)N1CCN(Cc2ccc(-c3ccc(C(O)(C(F)(F)F)C(F)(F)F)cc3)cc2)CC1 .
**A:** 0.5 fold change over DMSO
